Experiment: Inhibition of wild type EGFR in human NCI-H1666 cells assessed as suppression of cell proliferation
ATTRIBUTE_MEASURED: IC50
A complete answer gives the number followed by the unit.

GET /values?readout=IC50&item= C=CC(=O)N1CC[C@@H](Oc2nc(Nc3ccc(N4CCC(N5CCN(C)CC5)CC4)cc3)c(C(N)=O)nc2CC)C1
230 nM

* * *

Experiment: Inhibition of EGFR L858R/T790M double mutant in human NCI-H1975 cells assessed as suppression of cell proliferation
ATTRIBUTE_MEASURED: pIC50
pIC50 (log units): -log10 of the concentration in mol/L.

GET /values?readout=pIC50&item= C=CC(=O)N1CC[C@@H](Oc2nc(Nc3ccc(N4CCC(N5CCN(C)CC5)CC4)cc3)c(C(N)=O)nc2CC)C1 [US9085540, 54]
8.10
